Documented IC50 across a set of compounds
assayTarget: GST-tagged KRAS-G12D (2-169) (Homo sapiens, UniProt P01116, G12D)
Construct: GST-tagged KRAS-G12D (2-169, Reaction Biology, MSC-11-539); purchased Reaction Biology MSC-11-539 (KRAS G12D); MSC-11-502 (SOS1cat)
Sequence (P01116 2-169 isoform P01116-2 G12D): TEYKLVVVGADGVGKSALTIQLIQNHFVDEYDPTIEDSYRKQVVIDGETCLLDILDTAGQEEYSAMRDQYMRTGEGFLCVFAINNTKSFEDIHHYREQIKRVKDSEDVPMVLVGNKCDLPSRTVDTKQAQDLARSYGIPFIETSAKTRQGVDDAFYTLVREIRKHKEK
methodSummary: Nucleotide exchange assay (NEA), SOS-mediated, HTRF, KRAS G12D
Type: biochemical
conditionNotes: Table 4; IC50 extracted at 30 min

{"compound": "N#Cc1c(N2C[C@H]3CC[C@@H](C2)N3)nc(OCC2(CN3CCOCC3)CC2)nc1N1CC2(C1)c1c(sc(N)c1C#N)CC2F (stereo partly drawn)", "assayTarget": "GST-tagged KRAS-G12D (2-169) (Homo sapiens, UniProt P01116, G12D)", "IC50": "< 10 nM"}
{"compound": "N#Cc1c(N2C[C@H]3CC[C@@H](C2)N3)nc(OCc2[nH]ncc2F)nc1N1CC2(CCc3sc(N)c(C#N)c32)C1", "assayTarget": "GST-tagged KRAS-G12D (2-169) (Homo sapiens, UniProt P01116, G12D)", "IC50": "10 to 100 nM"}
{"compound": "CN(C)CC1(COc2nc(N3CCCn4nc(C(=O)N(C)C)c(Cl)c4C3)c(C#N)c(N3CC4(CCCc5sc(N)c(C#N)c54)C3)n2)CC1(F)F (stereo not drawn)", "assayTarget": "GST-tagged KRAS-G12D (2-169) (Homo sapiens, UniProt P01116, G12D)", "IC50": "< 10 nM"}
{"compound": "Cn1nccc1COc1nc(N2C[C@H]3CC[C@@H](C2)N3)c(C#N)c(N2CC3(CCc4sc(N)c(C#N)c43)C2)n1", "assayTarget": "GST-tagged KRAS-G12D (2-169) (Homo sapiens, UniProt P01116, G12D)", "IC50": "< 10 nM"}
{"compound": "CC1Cn2nncc2CN1c1nc(OC[C@@]23CCCN2C[C@H](F)C3)nc(N2CC3(CCc4sc(N)c(C#N)c43)C2)c1C#N (stereo partly drawn)", "assayTarget": "GST-tagged KRAS-G12D (2-169) (Homo sapiens, UniProt P01116, G12D)", "IC50": "100 to 1000 nM"}

Look up IC50: N#Cc1c(N2CCC(O)C(O)CC2)nc(OC[C@@]23CCCN2C[C@H](F)C3)nc1N1CC2(CCc3sc(N)c(C#N)c32)C1 (stereo partly drawn)
10 to 100 nM

Origin of values: patent US12145947B2
